# Measured target: Virion infectivity factor (Human immunodeficiency virus type 1 group M subtype B (isolate NY5)(HIV-1)) (UniProt P12504)
# Sequence (P12504 whole entry): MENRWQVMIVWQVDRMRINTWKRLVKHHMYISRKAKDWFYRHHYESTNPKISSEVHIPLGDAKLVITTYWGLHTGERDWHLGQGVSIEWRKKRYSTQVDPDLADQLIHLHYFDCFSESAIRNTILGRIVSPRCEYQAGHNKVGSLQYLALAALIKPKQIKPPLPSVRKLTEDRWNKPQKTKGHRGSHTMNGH
# Run description: Antagonist activity against HIV-1 GFP-tagged Vif in human HEK293FT cells co-expressing HA-tagged A3G assessed as upregulation of A3G levels at 50 uM measured after 16 hrs by immunoblotting method
# Format: cell-based
# Condition context: Human immunodeficiency virus 1
Calls of active or inactive are those of the source. No cut-off for these calls is given here.
Readout: Activity

| Structure notation | Activity |
| --- | --- |
| COc1ccccc1-c1nnc(-c2ccccc2Sc2ccc([N+](=O)[O-])cc2)o1 | Active |
| COc1ccc(OC)c(-n2cc(-c3ccccc3S(=O)(=O)c3ccc(N)cc3)nn2)c1 | Active |
| COc1ccccc1-n1nncc1-c1ccccc1Sc1ccc([N+](=O)[O-])cc1 | Active |
| COc1ccc(OC)c(-n2cc(-c3ccccc3S(=O)(=O)c3ccc(C(=O)O)cc3)nn2)c1 | Active |

We now examine a further compound.
[in] Given the entry `COc1ccccc1NC(=O)c1ccccc1Sc1ccc([N+](=O)[O-])cc1` , report its measured Activity.
[out] Active
